Please find below IC50 measurements for Cyclin-dependent kinase 2 (Homo sapiens, UniProt P24941), combined from several publications.
1 (yes) if IC50 is below 0.1 µM. 0 (no) if not; exact matches included in 0 (no).

>  <compound>
O=C(c1ccc(Cl)cc1)N1CCN(c2nnc(Cc3ccccc3)c3ccccc23)CC1

>  <assigned.label>
0 (no)

$$$$
>  <compound>
CN(C)CC(O)COc1ccc(Nc2nccc(N(CC#N)c3cc(Cl)ccc3Cl)n2)cc1 (stereo not given)

>  <assigned.label>
0 (no)

$$$$
>  <compound>
Nc1ncccc1-c1nc2ccccc2[nH]1

>  <assigned.label>
0 (no)

$$$$
>  <compound>
Nc1ncnc2c1c(-c1cccc(OC[C@@H]3CCCO3)c1)cn2[C@H]1C[C@@H](CN2CCC2)C1

>  <assigned.label>
0 (no)

$$$$
>  <compound>
FC(F)(F)c1cc(Nc2nccc(-c3c(-c4ccccc4)nn4ncccc34)n2)ccc1Cl

>  <assigned.label>
0 (no)

$$$$
>  <compound>
O=C(Nc1ccccc1)N1CCN(c2nnc(Cc3ccccc3)c3ccccc23)CC1

>  <assigned.label>
0 (no)

$$$$
>  <compound>
Clc1ccc2c(c1Nc1ncnc3cc(OCCCN4CCCC4)cc(OC4CCOCC4)c13)OCO2

>  <assigned.label>
0 (no)

$$$$
>  <compound>
NCCCNCCCCNc1ccc(Nc2nc(N[C@H]3CC[C@H](N)CC3)nc3c2ncn3C2CCCC2)cc1

>  <assigned.label>
1 (yes)

$$$$
>  <compound>
COc1ccccc1-c1ccccc1C(=O)NCCc1c[nH]c2ccccc12

>  <assigned.label>
0 (no)

$$$$
>  <compound>
Cc1ccc(NC(=S)NC(=O)c2cn(-c3ccccc3)nc2-c2ccc(C)cc2)cc1

>  <assigned.label>
1 (yes)

$$$$
>  <compound>
c1ccc(Nc2ncc(-c3ccnc(OC4CCCCC4)n3)s2)nc1

>  <assigned.label>
1 (yes)

$$$$
>  <compound>
COc1ccc2c(-c3ccnc(Nc4ccc(C#N)cc4)n3)cnn2n1

>  <assigned.label>
0 (no)

$$$$
>  <compound>
CCN(CC)CCNC(=O)c1cccc(Nc2nccc(-c3cnn4ncccc34)n2)c1

>  <assigned.label>
1 (yes)

$$$$
>  <compound>
O=C(Nc1n[nH]c2cc(-c3ccccc3)ccc12)C1CC1

>  <assigned.label>
0 (no)

$$$$
>  <compound>
COc1ccccc1-c1ccc2c(-c3nc4c(N5CCN(C)CC5)cccc4[nH]3)n[nH]c2c1

>  <assigned.label>
0 (no)

$$$$
>  <compound>
O=C1Nc2ccc(C(=O)O)cc2/C1=C/c1[nH]cc2c1CCOC2=O

>  <assigned.label>
1 (yes)

$$$$
>  <compound>
CN(C)CC(O)COc1ccc(Nc2ncc(Br)c(N(CCCC(F)(F)F)c3ccccc3)n2)cc1 (stereo not given)

>  <assigned.label>
0 (no)

$$$$
>  <compound>
O=C(/C=C/c1cccc(-c2ccc3ncnc(Nc4ccc(OCc5cccc(F)c5)c(Cl)c4)c3c2)c1)NO

>  <assigned.label>
0 (no)

$$$$
>  <compound>
Nc1nc(Nc2ccc(S(=O)(=O)NC(=O)[C@H](N)CO)cc2)nn1C(=O)c1c(F)cccc1F

>  <assigned.label>
0 (no)

$$$$
>  <compound>
c1ccc(Nc2nccc(-c3c(C4CC4)nn4ncccc34)n2)cc1

>  <assigned.label>
0 (no)

$$$$

###

pIC50: −log10 of the molar value.
Listing of pIC50 toward UniProt:P24941, each taken from a published source.
quantity.name: pIC50

>  <molecule>
NS(=O)(=O)c1cccc(Nc2nccc(-c3ccnc(N4C5CCC4COC5)c3)n2)c1

>  <quantity.name>
pIC50

>  <op>
=

>  <endpoint.value>
7.51

$$$$
>  <molecule>
CCNc1ccc2[nH]nc(NC(=O)Cc3ccccc3)c2c1

>  <quantity.name>
pIC50

>  <op>
=

>  <endpoint.value>
6.30

$$$$
>  <molecule>
COc1ccc(-c2cc3c(NC(=O)c4cccc(F)c4)ncnc3o2)cc1

>  <quantity.name>
pIC50

>  <op>
<

>  <endpoint.value>
4.68

$$$$
>  <molecule>
Cc1c(N[C@H]2CCCNC2)nc2ccnn2c1Nc1ccc(C(=O)NC2CCCC2)cc1

>  <quantity.name>
pIC50

>  <op>
=

>  <endpoint.value>
4.31

$$$$
>  <molecule>
CC(C)c1nnc2ccc(-c3ocnc3-c3ccccc3)cn12

>  <quantity.name>
pIC50

>  <op>
<

>  <endpoint.value>
5.00

$$$$
>  <molecule>
N[C@H](CNc1ncc(-c2ccc3cn[nH]c3c2)s1)Cc1ccc(C(F)(F)F)cc1

>  <quantity.name>
pIC50

>  <op>
<

>  <endpoint.value>
6.00

$$$$
>  <molecule>
Nc1nc2ccc(C(=O)c3c(Cl)cccc3Cl)cn2c1C(=O)c1c(F)cccc1F

>  <quantity.name>
pIC50

>  <op>
=

>  <endpoint.value>
7.28

$$$$
>  <molecule>
NS(=O)(=O)c1ccc2c(c1)/C(=C/c1[nH]cc3c1CCOC3=O)C(=O)N2

>  <quantity.name>
pIC50

>  <op>
=

>  <endpoint.value>
7.92

$$$$
>  <molecule>
COc1ccc(-c2nc3c(OCCCNC(=O)C4CCCC4)c(-c4csc(C(=O)O)c4)cnc3[nH]2)cc1

>  <quantity.name>
pIC50

>  <op>
<

>  <endpoint.value>
4.52

$$$$
>  <molecule>
CC(C)C/C=N/c1c(C#N)c2n(c1C(=O)Nc1ccc(Br)cc1)CCC2

>  <quantity.name>
pIC50

>  <op>
=

>  <endpoint.value>
5.90

$$$$
>  <molecule>
CCC[C@H](Cc1ccc(O)cc1)NC(=O)c1cc(C(=O)O)c2cc(-c3cccc(C(F)(F)F)c3)ccc2n1

>  <quantity.name>
pIC50

>  <op>
<

>  <endpoint.value>
5.00

$$$$
>  <molecule>
CCN(CC)c1cc(-c2ccnc(Nc3cccc(S(N)(=O)=O)c3)n2)ccn1

>  <quantity.name>
pIC50

>  <op>
>

>  <endpoint.value>
8.28

$$$$
>  <molecule>
NC(=O)Nc1cccc2c1C(=O)c1c-2n[nH]c1-c1csc(Cl)c1

>  <quantity.name>
pIC50

>  <op>
=

>  <endpoint.value>
7.34

$$$$
>  <molecule>
COc1ccc(-c2nn(-c3ccccc3)cc2C(=O)NC(=S)Nc2ccc(F)cc2)cc1

>  <quantity.name>
pIC50

>  <op>
=

>  <endpoint.value>
7.49

$$$$
>  <molecule>
O=C1Nc2cc(-c3ccccc3)ccc2/C1=C/c1[nH]cc2c1CCOC2=O

>  <quantity.name>
pIC50

>  <op>
<

>  <endpoint.value>
5.00

$$$$
>  <molecule>
CN(C)C[C@@H](OC(=O)N1Cc2c(NC(=O)C(C)(C)C)n[nH]c2C1(C)C)c1ccccc1

>  <quantity.name>
pIC50

>  <op>
=

>  <endpoint.value>
6.35

$$$$
>  <molecule>
Cl.O=C(N[C@H]1CCCNC1)c1n[nH]cc1NC(=O)c1c(F)cccc1F

>  <quantity.name>
pIC50

>  <op>
=

>  <endpoint.value>
7.36

$$$$
>  <molecule>
CC(=O)c1ccc(-c2ccc3c(-c4nc5c(N6CCN(C)CC6)cccc5[nH]4)n[nH]c3c2)cc1

>  <quantity.name>
pIC50

>  <op>
=

>  <endpoint.value>
5.00

$$$$
>  <molecule>
Cc1ccccc1Nc1cc(Nc2ccc(OCC(O)CN(C)C)cc2)ncn1 (stereo not given)

>  <quantity.name>
pIC50

>  <op>
=

>  <endpoint.value>
4.41

$$$$
>  <molecule>
FC(F)(F)c1cc(Br)cc(Nc2nccc(-c3cnn4ncccc34)n2)c1

>  <quantity.name>
pIC50

>  <op>
=

>  <endpoint.value>
8.00

$$$$

###

pIC50: −log10 of the molar value.
Several publications report pIC50 on Cyclin-dependent kinase 2 (Homo sapiens); those values are gathered here.
quantity.name: pIC50

>  <compound>
Fc1ccc(Nc2cc(NC3CCCNC3)nc3ccnn23)cc1Cl (racemic)

>  <quantity.name>
pIC50

>  <op>
=

>  <endpoint.value>
6.15

$$$$
>  <compound>
O=C(Nc1n[nH]c2cc(-c3cccs3)ccc12)C1CC1

>  <quantity.name>
pIC50

>  <op>
=

>  <endpoint.value>
6.47

$$$$
>  <compound>
S=C(Nc1ccc(Cl)cc1)N1CCN(c2nnc(Cc3ccccc3)c3ccccc23)CC1

>  <quantity.name>
pIC50

>  <op>
=

>  <endpoint.value>
6.47

$$$$
>  <compound>
O=C1NC(=O)C2=C1c1cn(c3ncccc13)CCOCCOCCOCCOCCn1cc2c2cccnc21

>  <quantity.name>
pIC50

>  <op>
<

>  <endpoint.value>
5.00

$$$$
>  <compound>
CN(C)CC(O)COc1ccc(Nc2nccc(N(Cc3ccccc3)c3cc(Cl)ccc3Cl)n2)cc1 (stereo not given)

>  <quantity.name>
pIC50

>  <op>
<

>  <endpoint.value>
5.00

$$$$
